Species: Rattus norvegicus
run.description: DrugMatrix - Regimen: Daily Repeat
Format: toxicity, organism-based, Sprague-Dawley
Design: regimen Daily Repeat, gender Male, age 6-8 weeks
measurement.context: in vivo, po, 0 mg/kg, 72 h, tissue Blood, route oral GAVAGE, dose level Control, time 3 day, […]
value.type: ABSOLUTE MONOCYTE
Your answer should be a number followed by the unit of measure.

Below: 3 compounds and their reported ABSOLUTE MONOCYTE.
compound: COc1cc(N)c(Cl)cc1C(=O)NC1CCN(CCCOc2ccc(F)cc2)CC1OC (centres undefined) [CISAPRIDE]
value.type: ABSOLUTE MONOCYTE
recorded.value: 50 CELLS/uL

compound: CO[C@H]1/C=C/O[C@@]2(C)Oc3c(C)c(O)c4c(O)c(c(/C=N/N5CCN(C6CCCC6)CC5)c(O)c4c3C2=O)NC(=O)/C(C)=C\C=C\[C@H](C)[C@H](O)[C@@H](C)[C@@H](O)[C@@H](C)[C@H](OC(C)=O)[C@@H]1C
value.type: ABSOLUTE MONOCYTE
recorded.value: 128.83 CELLS/uL

compound: CC(C)(C)NC(=O)[C@H]1CC[C@H]2[C@@H]3CC[C@H]4NC(=O)C=C[C@]4(C)[C@H]3CC[C@]12C [FINASTERIDE]
value.type: ABSOLUTE MONOCYTE
recorded.value: 155.67 CELLS/uL

Could you now look at the following compound, please?
Enquiry: So what does the record say about ABSOLUTE MONOCYTE for Clc1ccc(COC(Cn2ccnc2)c2ccc(Cl)cc2Cl)cc1 (centres undefined) ?
Return: 354.33 CELLS/uL
